Tgt: T1, FRET substrate GGGSG
T1 chain: GGGSG
Recorded measurements of Specific activity (U/mg), one per entry
Give just the numeric value; U/mg need not be written.

For orientation, consider the following solved cases.
{"columns": ["Protein", "Specific activity (U/mg)"],
 "data": [
  ["β-lytic metalloprotease (beta-lytic metallopeptidase; BLP) (protein) SPNGLLQFPFPRGASWHVGGAHTNTGSGNYPMSSLDMSRGGGWGSNQNGNWVSASAAGSFKRHSSCFAEIVHTGGWSTTYYHLMNIQYNTGANVSMNTAIANPANTQAQALCNGGQSTGPHEHWSLKQNGSFYHLNGTYLSGYRITATGSSYDTNCSRFYLTKNGQNYCYGYYVNPGPN", 231],
  ["Las A protein (LasA or LAS) (protein) APPSNLMQLPWRQGYSWQPNGAHSNTGSGYPYSSFDASYDWPRWGSATYSVVAAHAGTVRVLSRCQVRVTHPSGWATNYYHMDQIQVSNGQQVSADTKLGVYAGNINTALCEGGSSTGPHLHFSLLYNGAFVSLQGASFGPYRINVGTSNYDNDCRRYYFYNQSAGTTHCAFRPLYNPGLAL", 19]
]}

Retrieve Specific activity (U/mg) measured for ALE-1 glycylglycine endopeptidase (ALE-1) (protein) STKVDAPKVEQEAPAKADAPKVEQEAPAKADAPKVEQEAPAKVDAPKVEQEAPAKVDAPKVEQEAPAKADAPKVEQKRTFVREAAQSNHSASWLNNYKKGYGYGPYPLGINGGNHYGVDFFMNVGTPVRAISDGKIVEAGWTNYGGGNEIGLVENDGVHRQWYMHLSKFNVKVGDRVKAGQIIGWSGSTGYSTAPHLHFQRMTNSFSNNTAQDPMPFLKSAGYGSNSTSSSNNNGYKTNKYGTLYKSESASFTANTDIITRLTGPFRSMPQSGVLRKGLTIKYDEVMKQDGHVWVGYNTNSGKRVYLPVRTWNESTGELGPLWGTIK and print it.
0

Retrieve Specific activity (U/mg) measured for Aeromonas hydrophila proteinase (AhP) (protein) AGGQFQLPWRQGYSWKANGAHSHTGSGYPYSSIDVSYDWPGWGGATYTVTAANSGTVTVFSRCQVRVTATNGWATNYYHMSGISVRSGDYVAADTPIGTYASNRNEALCEGGSSTGPHLHFSLLYNGVFQSLQGQRLSSYAVNVGASNYDDNCNRFWLYNQRNGQRYCAWQPLYNNGID and print it.
10
